For each entry below, report its Activity value.
Target or system: D(3) dopamine receptor (Homo sapiens)
Measurement protocol: Displacement of [3H]N-methylspiperone from dopamine D3 receptor (unknown origin) assessed as total radioligand binding at 1.66 x 10^-7 M incubated for 60 mins by microbeta plate reader based method
Answer in %, number only, no unit symbol.

GET /value?item= Cc1cc2c(s1)Nc1ccccc1N=C2N1CCN(C)CC1 &field=Activity returns 24

GET /value?item= Cc1cccc(N2CCN(CCCCn3ccn4c5c(=O)n(C)c(=O)n(C)c5nc34)CC2)c1C &field=Activity returns 47

GET /value?item= Cc1cn2c3c(=O)n(C)c(=O)n(C)c3nc2n1CCCCN1CCN(c2ccccc2O)CC1 &field=Activity returns 86

GET /value?item= Cc1cccc(N2CCN(CCCCn3c(C)cn4c5c(=O)n(C)c(=O)n(C)c5nc34)CC2)c1C &field=Activity returns 43

GET /value?item= Cn1c(=O)c2c(nc3n(CCCCCN4CCN(c5ccccc5O)CC4)c(=O)ccn23)n(C)c1=O &field=Activity returns 67

GET /value?item= Cn1c(=O)c2c(nc3n(CCCCN4CCN(c5ccc(Cl)cc5)CC4)c(=O)ccn23)n(C)c1=O &field=Activity returns 96

GET /value?item= Cn1c(=O)c2c(nc3n(CCCCCN4CCN(c5ccc(Cl)c(Cl)c5)CC4)c(=O)ccn23)n(C)c1=O &field=Activity returns 96

GET /value?item= Cn1c(=O)c2c(nc3n(CCCCN4CCN(c5ccccc5O)CC4)c(=O)ccn23)n(C)c1=O &field=Activity returns 84

GET /value?item= Cn1c(=O)c2c(nc3n(CCCCN4CCN(c5ccc(Cl)c(Cl)c5)CC4)c(=O)ccn23)n(C)c1=O &field=Activity returns 99

GET /value?item= Cn1c(=O)c2c(nc3n(CCCCN4CCN(c5ccccc5O)CC4)ccn23)n(C)c1=O &field=Activity returns 67

GET /value?item= Cn1c(=O)c2c(nc3n(CCCCN4CCN(c5ccccc5O)CC4)c(-c4ccccc4)cn23)n(C)c1=O &field=Activity returns 81

GET /value?item= Cn1c(=O)c2c(nc3n(CCCCCN4CCN(c5ccccc5O)CC4)ccn23)n(C)c1=O &field=Activity returns 69

GET /value?item= Cn1c(=O)c2c(nc3n(CCCCCN4CCN(c5ccc(Cl)cc5)CC4)c(=O)ccn23)n(C)c1=O &field=Activity returns 99

GET /value?item= Cn1c(=O)c2c(nc3n(CCCCCN4CCN(c5ccccc5O)CC4)c(-c4ccccc4)cn23)n(C)c1=O &field=Activity returns 81

GET /value?item= Cn1c(=O)c2c(nc3n(CCCCCN4CCN(c5ccc(Cl)c(Cl)c5)CC4)ccn23)n(C)c1=O &field=Activity returns 67

GET /value?item= Cc1cccc(N2CCN(CCCCn3c(=O)ccn4c5c(=O)n(C)c(=O)n(C)c5nc34)CC2)c1C &field=Activity returns 100

GET /value?item= Cc1cn2c3c(=O)n(C)c(=O)n(C)c3nc2n1CCCCN1CCN(c2ccc(Cl)c(Cl)c2)CC1 &field=Activity returns 90

GET /value?item= Cn1c(=O)c2c(nc3n(CCCCN4CCN(c5ccc(Cl)c(Cl)c5)CC4)ccn23)n(C)c1=O &field=Activity returns 31

GET /value?item= Cc1cccc(N2CCN(CCCCCn3c(=O)ccn4c5c(=O)n(C)c(=O)n(C)c5nc34)CC2)c1C &field=Activity returns 83

GET /value?item= Cc1cn2c3c(=O)n(C)c(=O)n(C)c3nc2n1CCCCCN1CCN(c2ccccc2O)CC1 &field=Activity returns 85

###

Target or system: 5-hydroxytryptamine receptor 6 (Homo sapiens, UniProt P50406)
Sequence (P50406 whole entry): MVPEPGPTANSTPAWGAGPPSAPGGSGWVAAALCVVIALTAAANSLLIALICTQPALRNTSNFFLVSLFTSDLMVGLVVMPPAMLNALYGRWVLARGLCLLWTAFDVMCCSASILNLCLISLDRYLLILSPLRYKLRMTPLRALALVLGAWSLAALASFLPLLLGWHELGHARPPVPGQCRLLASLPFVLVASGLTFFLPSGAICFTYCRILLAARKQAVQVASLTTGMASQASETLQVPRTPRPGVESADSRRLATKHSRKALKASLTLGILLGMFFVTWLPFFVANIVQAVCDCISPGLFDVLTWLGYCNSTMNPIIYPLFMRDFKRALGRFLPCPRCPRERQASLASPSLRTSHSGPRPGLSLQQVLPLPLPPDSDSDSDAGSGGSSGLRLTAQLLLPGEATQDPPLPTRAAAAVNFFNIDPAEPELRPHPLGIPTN
Measurement protocol: Displacement of [3H]LSD from human recombinant 5-HT6 receptor expressed in HEK293 cells assessed as total radioligand binding at 1 uM incubated for 60 mins by microbeta plate reader based method
Type: cell-based
Returns rule met if the recorded Activity is greater than or equal to 80%, and rule not met otherwise.

Input: Could you verify whether the entry Cc1cn2c3c(=O)n(C)c(=O)n(C)c3nc2n1CCCCCN1CCN(c2ccccc2O)CC1 shows Activity of no less than 80%?
Output: rule not met

Input: Could you verify whether the entry Cn1c(=O)c2c(nc3n(CCCCN4CCN(c5ccccc5O)CC4)ccn23)n(C)c1=O shows Activity of no less than 80%?
Output: rule met

Input: Could you verify whether the entry Cn1c(=O)c2c(nc3n(CCCCN4CCN(c5ccccc5O)CC4)c(=O)ccn23)n(C)c1=O shows Activity of no less than 80%?
Output: rule met

Input: Could you verify whether the entry Cc1cccc(N2CCN(CCCCn3ccn4c5c(=O)n(C)c(=O)n(C)c5nc34)CC2)c1C shows Activity of no less than 80%?
Output: rule not met

Input: Could you verify whether the entry Cc1cccc(N2CCN(CCCCCn3c(=O)ccn4c5c(=O)n(C)c(=O)n(C)c5nc34)CC2)c1C shows Activity of no less than 80%?
Output: rule not met

###

Target or system: D(2) dopamine receptor (Homo sapiens, UniProt P14416)
Sequence (P14416 whole entry): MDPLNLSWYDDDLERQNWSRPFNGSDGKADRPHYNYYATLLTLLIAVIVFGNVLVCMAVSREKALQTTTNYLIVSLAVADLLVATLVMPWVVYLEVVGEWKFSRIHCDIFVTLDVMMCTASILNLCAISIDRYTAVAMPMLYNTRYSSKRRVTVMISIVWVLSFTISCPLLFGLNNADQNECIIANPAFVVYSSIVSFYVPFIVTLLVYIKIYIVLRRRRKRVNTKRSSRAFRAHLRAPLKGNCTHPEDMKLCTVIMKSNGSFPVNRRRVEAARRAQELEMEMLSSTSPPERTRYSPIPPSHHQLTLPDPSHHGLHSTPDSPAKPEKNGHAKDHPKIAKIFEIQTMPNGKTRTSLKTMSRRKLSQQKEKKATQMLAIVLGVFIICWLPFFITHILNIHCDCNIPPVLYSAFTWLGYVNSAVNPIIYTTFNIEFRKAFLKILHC
Measurement protocol: Agonist activity at human D2L receptor expressed in HEK293 cells assessed as stimulation of cAMP levels at 1 uM relative to dopamine
Type: functional, cell-based
For each entry below, report its Activity value.
Answer in %, number only, no unit symbol.

GET /value?item= Cc1cn2c3c(=O)n(C)c(=O)n(C)c3nc2n1CCCCCN1CCN(c2ccc(Cl)c(Cl)c2)CC1 &field=Activity returns 10

GET /value?item= Cn1c(=O)c2c(nc3n(CCCCCN4CCN(c5ccccc5O)CC4)c(-c4ccccc4)cn23)n(C)c1=O &field=Activity returns 7.7

GET /value?item= Cc1cccc(N2CCN(CCCCn3c(C)cn4c5c(=O)n(C)c(=O)n(C)c5nc34)CC2)c1C &field=Activity returns 37.6

GET /value?item= Cn1c(=O)c2c(nc3n(CCCCN4CCN(c5ccccc5O)CC4)c(-c4ccccc4)cn23)n(C)c1=O &field=Activity returns 28

GET /value?item= Cn1c(=O)c2c(nc3n(CCCCCN4CCN(c5ccc(Cl)cc5)CC4)c(-c4ccccc4)cn23)n(C)c1=O &field=Activity returns 7.7

###

Target or system: UniProtKB P08908
Sequence (P08908 whole entry): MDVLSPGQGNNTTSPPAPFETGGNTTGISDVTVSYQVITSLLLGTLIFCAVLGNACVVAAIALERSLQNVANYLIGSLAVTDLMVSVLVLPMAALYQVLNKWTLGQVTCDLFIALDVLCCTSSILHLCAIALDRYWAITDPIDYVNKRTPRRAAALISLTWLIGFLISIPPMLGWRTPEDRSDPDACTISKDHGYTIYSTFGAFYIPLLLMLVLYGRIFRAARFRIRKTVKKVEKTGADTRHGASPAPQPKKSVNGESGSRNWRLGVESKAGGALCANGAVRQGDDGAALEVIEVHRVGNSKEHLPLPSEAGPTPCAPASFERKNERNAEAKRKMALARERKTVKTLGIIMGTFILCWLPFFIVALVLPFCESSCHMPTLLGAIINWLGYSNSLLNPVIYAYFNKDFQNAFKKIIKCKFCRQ
Measurement protocol: Antagonist activity against human 5-HT1A receptor expressed in HEK293 cells assessed as inhibition of […]-induced cAMP levels at 1 uM
Type: functional, cell-based
For each entry below, report its inhibition value.
Answer in %, number only, no unit symbol.

GET /value?item= Cn1c(=O)c2c(nc3n(CCCCN4CCN(c5ccccc5O)CC4)c(-c4ccccc4)cn23)n(C)c1=O &field=inhibition returns 104

GET /value?item= Cn1c(=O)c2c(nc3n(CCCCCN4CCN(c5ccc(Cl)cc5)CC4)c(-c4ccccc4)cn23)n(C)c1=O &field=inhibition returns 34.7

GET /value?item= Cc1cn2c3c(=O)n(C)c(=O)n(C)c3nc2n1CCCCCN1CCN(c2ccc(Cl)c(Cl)c2)CC1 &field=inhibition returns 87.6

GET /value?item= Cc1cccc(N2CCN(CCCCn3c(C)cn4c5c(=O)n(C)c(=O)n(C)c5nc34)CC2)c1C &field=inhibition returns 105

GET /value?item= Cn1c(=O)c2c(nc3n(CCCCCN4CCN(c5ccccc5O)CC4)c(-c4ccccc4)cn23)n(C)c1=O &field=inhibition returns 91.8

###

Target or system: UniProt P14416
Measurement protocol: Displacement of [3H]N-methylspiperone from human recombinant dopamine D2 receptor expressed in CHOK1 cells incubated for 60 mins by microbeta plate reader based method
Format: cell-based, CHO-K1
Quantity name: Ki (nM)
Answer in nM, number only, no unit symbol.

GET /value?item= Cn1c(=O)c2c(nc3n(CCCCN4CCN(c5ccc(Cl)cc5)CC4)c(=O)ccn23)n(C)c1=O &field=Ki returns 68

GET /value?item= Cn1c(=O)c2c(nc3n(CCCCN4CCN(c5ccccc5O)CC4)c(-c4ccccc4)cn23)n(C)c1=O &field=Ki returns 4

GET /value?item= Cc1cn2c3c(=O)n(C)c(=O)n(C)c3nc2n1CCCCN1CCN(c2ccc(Cl)cc2)CC1 &field=Ki returns 123

GET /value?item= Cc1cn2c3c(=O)n(C)c(=O)n(C)c3nc2n1CCCCCN1CCN(c2ccc(Cl)cc2)CC1 &field=Ki returns 106

GET /value?item= Cn1c(=O)c2c(nc3n(CCCCCN4CCN(c5ccccc5O)CC4)c(=O)ccn23)n(C)c1=O &field=Ki returns 340

GET /value?item= Cn1c(=O)c2c(nc3n(CCCCN4CCN(c5ccc(Cl)cc5)CC4)c(-c4ccccc4)cn23)n(C)c1=O &field=Ki returns 23

GET /value?item= Cn1c(=O)c2c(nc3n(CCCCCN4CCN(c5ccc(Cl)cc5)CC4)c(-c4ccccc4)cn23)n(C)c1=O &field=Ki returns 9

GET /value?item= Cn1c(=O)c2c(nc3n(CCCCN4CCN(c5ccccc5O)CC4)ccn23)n(C)c1=O &field=Ki returns 700

GET /value?item= Cn1c(=O)c2c(nc3n(CCCCCN4CCN(c5ccc(Cl)cc5)CC4)ccn23)n(C)c1=O &field=Ki returns 259

GET /value?item= Cc1cn2c3c(=O)n(C)c(=O)n(C)c3nc2n1CCCCN1CCN(c2ccccc2O)CC1 &field=Ki returns 430

GET /value?item= Cn1c(=O)c2c(nc3n(CCCCCN4CCN(c5ccccc5O)CC4)ccn23)n(C)c1=O &field=Ki returns 265

GET /value?item= Cn1c(=O)c2c(nc3n(CCCCCN4CCN(c5ccc(Cl)cc5)CC4)c(=O)ccn23)n(C)c1=O &field=Ki returns 215

GET /value?item= Cc1cn2c3c(=O)n(C)c(=O)n(C)c3nc2n1CCCCCN1CCN(c2ccccc2O)CC1 &field=Ki returns 468

GET /value?item= Cc1cccc(N2CCN(CCCCn3c(C)cn4c5c(=O)n(C)c(=O)n(C)c5nc34)CC2)c1C &field=Ki returns 27

GET /value?item= Cn1c(=O)c2c(nc3n(CCCCCN4CCN(c5ccccc5O)CC4)c(-c4ccccc4)cn23)n(C)c1=O &field=Ki returns 24

GET /value?item= Cc1cn2c3c(=O)n(C)c(=O)n(C)c3nc2n1CCCCCN1CCN(c2ccc(Cl)c(Cl)c2)CC1 &field=Ki returns 59
